Values from patent US7112586B2

target of assay: Motilin Receptor (Oryctolagus cuniculus)
Construct: The muscle tissue was homogenized in 10 volumes of 50 mM Tris-Cl; from tissue; host or cells: rabbit colon smooth muscle, crude membrane homogenate
Sequence (G1T803 1-400): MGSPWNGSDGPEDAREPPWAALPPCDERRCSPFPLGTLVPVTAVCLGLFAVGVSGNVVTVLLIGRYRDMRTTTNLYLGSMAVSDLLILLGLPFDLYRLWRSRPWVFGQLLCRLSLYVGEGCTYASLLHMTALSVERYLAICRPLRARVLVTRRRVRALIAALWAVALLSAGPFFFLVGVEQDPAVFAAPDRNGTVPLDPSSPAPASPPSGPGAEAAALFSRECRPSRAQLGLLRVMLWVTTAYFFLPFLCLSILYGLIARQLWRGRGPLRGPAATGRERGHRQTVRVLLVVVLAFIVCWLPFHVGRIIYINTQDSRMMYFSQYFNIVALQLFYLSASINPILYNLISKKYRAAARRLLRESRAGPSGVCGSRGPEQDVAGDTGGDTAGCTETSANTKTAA
assay notes: Motilin receptor binding, rabbit colon membranes, 125I porcine motilin
reported conditions: rabbit colon membranes; read-out: Rabbit Colon IC50
readout: pIC50
Scale: negative log10 of molar concentration, which is what pIC50 denotes.

compound: O=C(CCCC(=O)N(Cc1ccc(F)cc1)c1cccc(OCCN2CCCCC2)c1)N(CCc1ccccc1)Cc1ccccc1 [compound 182]
target of assay: Motilin Receptor (Oryctolagus cuniculus)
pIC50: 7.66

What pIC50 value was documented for this compound, COc1ccc(CCN(Cc2cccc(Cl)c2)C(=O)CCCN(C(=O)c2ccc(F)cc2)c2cccc(OCCN3CCOCC3)c2)cc1 [compound 147] ?
6.31

What pIC50 value was documented for this compound, O=C(c1ccc(F)cc1)N(CC1CCCC(N(Cc2cc(Cl)cc(Cl)c2)C(=O)C(Cl)(Cl)Cl)C1)c1cccc(OCCN2CCOCC2)c1 (centres unmarked) [compound 98] ?
6.12

What pIC50 value was documented for this compound, O=C(c1ccc(F)cc1)N(CC1CCCC(N(Cc2ccc(Cl)c(Cl)c2)C(=O)C(Cl)(Cl)Cl)C1)c1cccc(OCCN2CCOCC2)c1 (centres unmarked) [compound 99] ?
6.24

What pIC50 value was documented for this compound, Cc1c(OCCN2CCOCC2)cccc1N(Cc1ccc(F)cc1)C(=O)CCCC(=O)N(CCc1ccccc1)Cc1ccccc1 [compound 234] ?
6.66
